Below, each entry is listed alongside its reported TGI.
test system: OVCAR-8 ovarian; experiment: NCI tumour cell line growth inhibition, 48 h

molecule | experimental-system | TGI
CCOC(=O)c1cn(-c2ccc([N+](=O)[O-])cc2)c(=S)n2c1nc1ccccc12 | OVCAR-8 ovarian | > 100 µM
Nc1cc(C(F)(F)F)c(-c2nc(N3CCOCC3)nc(N3CCOCC3)n2)cn1 | OVCAR-8 ovarian | > 66.1 µM
CCOC(=O)C1C(NC(N)=O)N(Cc2ccccc2)C(=O)N1Cc1ccccc1 (centres undefined) | OVCAR-8 ovarian | > 100 µM
N#CCC(=O)N/N=C\C(O)C(O)C(O)C(O)CO (centres undefined) | OVCAR-8 ovarian | > 100 µM
COc1ccc(OC/C(N)=N/NC(=O)c2ccncc2)cc1 | OVCAR-8 ovarian | > 100 µM
NC(Cc1cc(I)c(Oc2ccc(O)c(I)c2)c(I)c1)C(=O)O (centres undefined) | OVCAR-8 ovarian | > 100 µM
COC(=O)C1CC(=O)O[C@H]1c1ccc(OC)c(OC)c1 (some centres undefined) | OVCAR-8 ovarian | > 100 µM
C#CCCCCCC(=O)N[C@H]1C=C[C@@H]2/C=C(C)/C=C/[C@@H](C)[C@H]([C@H](C)[C@H](O)[C@@H](C)NC(C)=O)OC(=O)/C=C/C=C(C)\C=C\[C@]2(C)C1 | OVCAR-8 ovarian | > 40 µM
C/C=C1/C=CC2c3[nH]c4ccccc4c3CCN2C1 (centres undefined) | OVCAR-8 ovarian | > 400 µM
